test: in vitro; details: human, HEK293 cell homogenate

chemical_smiles: CN(C)CCCN1c2ccccc2CCc2ccccc21
fraction unbound at 4 h: 0.59

Data provenance: paper PMC3985417
